# Test system: sole of the rat paws
# assay summary: Measurement of skin lesion (erythema) on rat paw;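 also: grades − to ++++ mean no to extremely severe erythema versus before injection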
# Assay type: in vivo, Sprague Dawley rats
# condition: bile acid single composition 7.5% (w/v)
measure: grade of skin lesion (erythema), Immediately after administration

molecule | observed
C[C@H](CCC(=O)NCCS(=O)(=O)O)[C@H]1CC[C@H]2[C@@H]3[C@@H](O)C[C@@H]4C[C@H](O)CC[C@]4(C)[C@H]3CC[C@]12C | −
C[C@H](CCC(=O)O)[C@H]1CC[C@H]2[C@@H]3[C@@H](O)C[C@@H]4C[C@H](O)CC[C@]4(C)[C@H]3CC[C@]12C | ++
C[C@H](CCC(=O)O)[C@H]1CC[C@H]2[C@@H]3[C@H](O)C[C@@H]4C[C@H](O)CC[C@]4(C)[C@H]3CC[C@]12C | ++
C[C@H](CCC(=O)O)[C@H]1CC[C@H]2[C@@H]3CC[C@@H]4C[C@H](O)CC[C@]4(C)[C@H]3C[C@H](O)[C@]12C | ++
C[C@H](CCC(=O)O)[C@H]1CC[C@H]2[C@@H]3C[C@H](O)[C@@H]4C[C@H](O)CC[C@]4(C)[C@H]3CC[C@]12C | ++
C[C@H](CCC(=O)NCC(=O)O)[C@H]1CC[C@H]2[C@@H]3[C@H](O)C[C@@H]4C[C@H](O)CC[C@]4(C)[C@H]3C[C@H](O)[C@]12C | +
C[C@H](CCC(=O)NCC(=O)O)[C@H]1CC[C@H]2[C@@H]3CCC4C[C@H](O)CC[C@]4(C)[C@H]3C[C@H](O)[C@]12C (some centres unmarked) | ++

Tell me the measured grade of skin lesion (erythema), Immediately after administration of C[C@H](CCC(=O)NCCS(=O)(=O)O)[C@H]1CC[C@H]2C3CC[C@@H]4C[C@H](O)CC[C@]4(C)[C@H]3C[C@H](O)[C@]12C (some centres unmarked) , please.
++

---

# System: tissues of the injected area (rat paw)
# assay summary: H&E staining histological test (inflammation) of injected rat paw
# Format: in vivo, Sprague Dawley rats
# condition: bile acid single composition 1.0% (w/v), injected rat paw
measure: Inflammation (H&E), BA % (w/v) 1.0

compound | measure | observed
C[C@H](CCC(=O)NCCS(=O)(=O)O)[C@H]1CC[C@H]2C3CC[C@@H]4C[C@H](O)CC[C@]4(C)[C@H]3C[C@H](O)[C@]12C (stereo partly drawn) | Inflammation (H&E), BA % (w/v) 1.0 | ++
C[C@H](CCC(=O)NCC(=O)O)[C@H]1CC[C@H]2[C@@H]3CCC4C[C@H](O)CC[C@]4(C)[C@H]3C[C@H](O)[C@]12C (stereo partly drawn) | Inflammation (H&E), BA % (w/v) 1.0 | ++
C[C@H](CCC(=O)O)[C@H]1CC[C@H]2[C@@H]3C[C@H](O)[C@@H]4C[C@H](O)CC[C@]4(C)[C@H]3CC[C@]12C | Inflammation (H&E), BA % (w/v) 1.0 | +++

---

# Tested on: sole of the rat paws
# assay summary: Measurement of skin lesion (erythema) on rat paw;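 also: grades − to ++++ mean no to extremely severe erythema versus before injection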
# Assay type: in vivo, Sprague Dawley rats
# condition: bile acid single composition 5.0% (w/v)
measure: grade of skin lesion (erythema), 2 hours after administration

molecule | observed
C[C@H](CCC(=O)O)[C@H]1CC[C@H]2[C@@H]3C[C@H](O)[C@@H]4C[C@H](O)CC[C@]4(C)[C@H]3CC[C@]12C | ++++
C[C@H](CCC(=O)O)[C@H]1CC[C@H]2[C@@H]3CC[C@@H]4C[C@H](O)CC[C@]4(C)[C@H]3C[C@H](O)[C@]12C | ++++
C[C@H](CCC(=O)NCCS(=O)(=O)O)[C@H]1CC[C@H]2C3CC[C@@H]4C[C@H](O)CC[C@]4(C)[C@H]3C[C@H](O)[C@]12C (stereo partly drawn) | ++++
